# System: Pseudogymnoascus destructans 20631-21;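 further: biolog Phenotype Microarray plates PM21–25, OD595 followed daily over 11 days, growth curves converted to index, mean of two independent experiments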
# TEST_DETAILS: growth activity index (DuctApe, 0 = no growth, 9 = maximal growth) (index 0-9); higher = more fungal growth (less inhibition), active = 0 or less; extreme values may be limits of the assay
# RUN_PARAMETERS: concentration level (1-4, increasing; Biolog proprietary): 2; temperature: 13 °C; YPD
Result category, one only: active, inactive

Example cases with answers are listed next.
[Cl][Ni][Cl] [Nickel chloride] (Biolog plate: PM21)    inactive
CN(CC[C@H](N)CC(=O)N[C@H]1C=C[C@H](n2ccc(N)nc2=O)O[C@@H]1C(=O)O)C(=N)N [Blasticidin S] (Biolog plate: PM24)    inactive
CC1C=CC=CCCC=CC=CC=CC=CC(OC2OC(C)C(O)C(N)C2O)CC2OC(O)(CC(O)C(O)CCC(O)CC(O)CC(O)CC(=O)OC(C)C(C)C1O)CC(O)C2C(=O)O (stereo not drawn) [Nystatin] (Biolog plate: PM21)    active
N#CO [Sodium Cyanate] (Biolog plate: PM23)    inactive
C[n+]1ccc(-c2cc[n+](C)cc2)cc1 [Methyl viologen] (Biolog plate: PM24)    active
O=[As][O-].[Na+] [Sodium Arsenite] (Biolog plate: PM23)    inactive
Nc1ccncc1 [4-Aminopyridine] (Biolog plate: PM25)    inactive

Okay, next one:
Exercise: Recorded test outcome, item [Cl][Cr]([Cl])[Cl] [Chromium (III) chloride] (Biolog plate: PM23)
Key: inactive
